# System tested: fluorescent receptor NK2R-RF1 (construct pCEP4-NK2R-RF1): EGFP fused between the alpha7 signal peptide and the amino-terminal end of the rat NK2R receptor, expressed on HEK 293 cells (Aequorea victoria; rat) (UniProt P16610)
# Assay text: FRET saturation on cells expressing NK2R-RF1, 0 to 256 nM NKA BO I
pKd: −log10 of the molar value. Where no end group is shown, it is not given here.

# Binder, pKd
measured = [
    ("HKTDSFVGLM (peptide, UniProt P20366 98-107, looked up, also: BODIPY 530/550 IA label, site not given here, mature; HPLC-purified reaction product of NKA with BODIPY 530/550 IA; also called NKA BO 1; NKA-Bodipy derivative) [NKA BO I (neurokinin A labeled with BODIPY 530/550 IA)]", "7.52 to 7.70"),
]
